Assay Info: Capmatinib/CMN288 pharmacokinetics, inhibition cohort
Format: in vivo, human (healthy subjects)
Reported Conditions: human, plasma, po, Cmax, mean (CV%), inhibition cohort, healthy subjects, single oral capmatinib 200 mg + itraconazole 200 mg/day, plasma
Readout Type: Cmax (ng/mL)

CNC(=O)c1ccc(-c2cnc3ncc(Cc4ccc5ncccc5c4)n3n2)cc1F = 1410
